Tested on: 653999-131-R-J2-PDC complex spheroids, growth % test/control;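 also: spheroids exposed to agents for seven days; 100% = DMSO vehicle control viability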
Assay: Anticancer human tumor 653999-131-R-J2-PDC patient-derived lung adenocarcinoma cell line growth inhibition [AhR]
Details: second compound 0.1 µM; first compound 0.1 µM; hits give low values
Can you tell me viability, T/C for the items I'm about to list?
Give just the numeric value; % need not be written.

Reported viability, T/C, molecule COc1cc(Nc2ncc3c(n2)-c2ccc(Cl)cc2C(c2c(F)cccc2OC)=NC3)ccc1C(=O)O + Cc1ccccc1N=Nc1ccc(NC(=O)c2ccnn2C)c(C)c1 : ____
74.9

# repeat for COc1cc(C2c3cc4c(cc3C(OC3OC5COC(C)OC5C(O)C3O)C3COC(=O)C23)OCO4)cc(OC)c1O (stereo not drawn) + CC(CO)NC(=O)c1cc(-c2ccc(Cl)cc2)nn(-c2cnn(C)c2)c1=O
79.2

# repeat for NS(=O)(=O)OCC1CC(n2ccc3c(NC4CCc5ccccc54)ncnc32)CC1O (stereo not drawn) + CC(CO)NC(=O)c1cc(-c2ccc(Cl)cc2)nn(-c2cnn(C)c2)c1=O
99.8
